These measurements were taken from ChEMBL document CHEMBL1129981.

Molecular target: Adrenergic receptor alpha-2 (Rattus norvegicus, UniProt P22086+P19328+P22909)
Sequence (P22086 whole entry): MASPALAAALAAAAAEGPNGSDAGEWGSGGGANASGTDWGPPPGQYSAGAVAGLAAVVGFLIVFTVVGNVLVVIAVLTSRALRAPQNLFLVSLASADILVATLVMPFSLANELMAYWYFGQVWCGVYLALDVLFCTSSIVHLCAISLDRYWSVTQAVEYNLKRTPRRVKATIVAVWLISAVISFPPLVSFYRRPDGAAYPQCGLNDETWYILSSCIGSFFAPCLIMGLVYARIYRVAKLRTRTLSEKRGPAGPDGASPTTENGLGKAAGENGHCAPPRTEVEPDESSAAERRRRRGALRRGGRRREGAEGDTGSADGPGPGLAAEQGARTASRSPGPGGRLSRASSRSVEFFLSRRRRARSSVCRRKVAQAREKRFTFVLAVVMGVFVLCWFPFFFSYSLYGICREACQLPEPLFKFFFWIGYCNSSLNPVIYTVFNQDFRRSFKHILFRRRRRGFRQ
Sequence (P19328 whole entry): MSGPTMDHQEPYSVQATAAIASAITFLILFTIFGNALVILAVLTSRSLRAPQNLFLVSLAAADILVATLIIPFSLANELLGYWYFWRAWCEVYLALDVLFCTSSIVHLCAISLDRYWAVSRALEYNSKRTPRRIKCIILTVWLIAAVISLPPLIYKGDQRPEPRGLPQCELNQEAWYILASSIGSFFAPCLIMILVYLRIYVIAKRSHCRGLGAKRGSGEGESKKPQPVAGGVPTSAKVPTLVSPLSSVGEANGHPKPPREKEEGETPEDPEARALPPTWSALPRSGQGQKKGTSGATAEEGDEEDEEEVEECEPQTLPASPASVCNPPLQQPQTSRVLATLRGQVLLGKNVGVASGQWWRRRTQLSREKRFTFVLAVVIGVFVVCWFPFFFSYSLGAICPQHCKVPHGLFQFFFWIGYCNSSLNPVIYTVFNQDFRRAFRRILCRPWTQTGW
Sequence (P22909 whole entry): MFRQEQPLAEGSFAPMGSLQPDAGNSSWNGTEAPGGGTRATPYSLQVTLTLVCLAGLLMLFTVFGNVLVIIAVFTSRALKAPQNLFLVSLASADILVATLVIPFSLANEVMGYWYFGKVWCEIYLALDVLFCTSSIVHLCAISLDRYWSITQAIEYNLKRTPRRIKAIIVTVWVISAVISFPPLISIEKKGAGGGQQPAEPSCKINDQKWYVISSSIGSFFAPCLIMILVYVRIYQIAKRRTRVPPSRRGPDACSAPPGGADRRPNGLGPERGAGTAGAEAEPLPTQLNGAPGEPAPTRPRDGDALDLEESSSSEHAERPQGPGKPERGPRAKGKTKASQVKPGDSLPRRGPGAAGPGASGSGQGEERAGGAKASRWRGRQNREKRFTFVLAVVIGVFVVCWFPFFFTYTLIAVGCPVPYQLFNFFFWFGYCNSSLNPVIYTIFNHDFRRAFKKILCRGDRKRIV
Experiment: Ability to displace [3H]rauwolscine from Alpha-2 adrenergic receptor in rat cortical membranes
Type: cell membranes
Property measured: Ki (nM)
Enter your answer as a number in nM; do not include the unit.

Below, each entry is followed by its recorded Ki result.
Molecule | Ki (nM)
COc1cccc2c1CCC[C@H]2CN(C)CCc1ccc2c(c1)CCN2 | 3.42
COc1cccc2c1CCC[C@H]2CN(C)CCc1ccc2nc(N)sc2c1 | 5.67
CN(CCc1ccc2c(c1)OCO2)CC1CCCc2c(O)cccc21 (stereo unspecified) | 7.54
COc1cccc2c1CCC[C@H]2CN(C)CCc1ccc2[nH]cnc2c1 | 5.21

Ki in this record for "COc1cccc2c1CCC[C@H]2CN(C)CCc1ccc2cccnc2c1" : 6.79
